Reference source: patent US10383859B2

# pIC50 per entry
System: A549 cells
test-description: Cell migration assay (24-well transwell, laminin)
Format: cell-based, human
measurement-setup: Homo sapiens, A549, 6 h, laminin 10 μg/mL in lower well, test compounds 0.39˜100 μM, migrated cells counted, read-out: Inhibitory activity against cell migration
pIC50: −log10 of the molar value.

Examples with their reported pIC50 follow.
COc1cc(C)c(CCN(c2nc3cccc(F)c3s2)C(C)c2ccc(C(=O)O)cc2)cc1C (stereo not shown) = > 6.00
CCC(c1ccc(C(=O)O)cc1)N(CCc1ccc(OC)cc1Cl)c1nc2cccc(F)c2s1 (stereo not shown) = < 5.00

Lookup: Item COc1ccc(CCN(Cc2ccc(C(=O)O)cc2)c2nc3ccc(C)cc3s2)cc1 with A549 cells - pIC50?
Found: < 5.00
